Test system: Human Oral Mucosa Explant Tissues
Assay: Effect of final gel pH on anthocyanin uptake into human oral mucosa explant tissues
Type: in vitro ADME
Details: explant sample 009; 10% w/w FBR gel
readout: % change 3.5 to 6.5 (%)

{"columns": ["molecule", "unit.of.measurement", "% change 3.5 to 6.5"],
 "data": [
  ["C[C@@H]1O[C@@H](OC[C@H]2O[C@@H](Oc3cc4c(O)cc(O)cc4[o+]c3-c3ccc(O)c(O)c3)[C@H](O)[C@@H](O)[C@@H]2O)[C@H](O)[C@H](O)[C@H]1O [cyanidin 3-rutinoside]", "%", 395.1],
  ["OC[C@H]1O[C@@H](Oc2cc3c(O)cc(O)cc3[o+]c2-c2ccc(O)c(O)c2)[C@H](O[C@@H]2OC[C@@H](O)[C@H](O)[C@H]2O)[C@@H](O)[C@@H]1O.[Cl-] [Cyanidin 3-sambubioside, cyanidin 3-sambubioside]", "%", 256.9]
]}

(1) CC1OC(OCC2OC(Oc3cc4c(O)cc(O)cc4[o+]c3-c3ccc(O)c(O)c3)C(OC3OCC(O)C(O)C3O)C(O)C2O)C(O)C(O)C1O (stereo not shown) [cyanidin 3-xylosylrutinoside]
(2) OC[C@H]1O[C@@H](Oc2cc3c(O)cc(O)cc3[o+]c2-c2ccc(O)c(O)c2)[C@H](O)[C@@H](O)[C@@H]1O [cyanidin 3-glucoside]
Record comparison, field % change 3.5 to 6.5: mark the lower of 1 and 2 . I would appreciate it if you answered with the label of your choice.
2
(2: 113.9%, 1: 318.4%)
